Where a name gives a salt, the structure may show the parent alone.
The following compounds are listed with their measured melting point values.

The following compounds have reported results that may help.
| compound | melting point |
| --- | --- |
| CC(=O)NCc1ccc(CN2CCN(c3nc(N(C)C)cc(N(C)C)n3)CC2)cc1 | 189 to 190 °C (dec.) |
| COc1ccnc(N2CCN(Cc3ccc(C(C)(C)NC(C)=O)cc3)CC2)n1 | 160 to 162 °C |
| CC(=O)NC(C)c1ccc(CN2CCN(c3ccccc3)CC2)cc1 (stereo not shown) (as salt: hydrochloride) (hydrate or solvate) | 196 to 200 °C |

Query block: Fill in the blank: the reported melting point of `CC(=O)N[C@@H](C)c1ccc(CN2CCN(c3ccc(F)cc3)CC2)cc1` is ____.
Result block: 114 to 115 °C

Query block: Fill blank: measured melting point of the compound `CC(=O)NCc1ccc(CN2CCN(c3ccc(F)cc3)CC2)cc1` is ____.
Result block: 164 to 166 °C

Query block: Given the compound `CC(=O)NCc1ccc(CN2CCN(c3ccc(F)cc3Cl)CC2)cc1` , what is its reported melting point?
Result block: 255 to 257 °C

---

Where a name gives a salt, the structure may show the parent alone.
experimental readout: melting point

Record excerpt, results attached:
| compound | melting point |
| --- | --- |
| CC(=O)NCc1ccc(CN2CCN(c3ccc([N+](=O)[O-])cc3)CC2)cc1 | 151.5 to 153.5 °C |
| CC(=O)NCc1ccc(CN2CCN(c3ccncc3)CC2)cc1 | 164 to 166 °C |
| CC(=O)NCc1ccc(CN2CCN(c3nccs3)CC2)cc1 (as salt: hydrochloride) (hydrate or solvate) | 120 to 121 °C |
| CC(=O)NC(C)c1ccc(CN2CCN(c3ccc(F)cc3F)CC2)cc1 (stereo not shown) | 109 to 111 °C |
| CC(=O)NC(C)(C)c1ccc(CN2CCN(c3ccccn3)CC2)cc1 | 129 to 130 °C |
| CC(=O)NCc1ccc(CN2CCN(c3ncc(Br)s3)CC2)cc1 | 160 to 163 °C |
| CC(=O)NCc1ccc(CN2CCN(c3ncccn3)CC2)cc1 [Example 72] | 120 to 121 °C |
| CC(=O)NCc1ccc(CN2CCN(c3cnccn3)CC2)cc1 | 118 to 119 °C |
| CC(=O)NCc1ccc(CN2CCN(c3ncccn3)CC2)cc1 (as salt: hydrochloride) (hydrate or solvate) [Example 73, Dihydrochloride Monohydrate] | 194 to 195 °C |
| CC(=O)N[C@H](C)c1ccc(CN2CCN(c3ccc(F)cc3)CC2)cc1 | 114 to 115 °C |

Query block: Data request, read-out melting point, for `CC(=O)NC1(c2ccc(CN3CCN(c4nccs4)CC3)cc2)CC1`
Result block: 184 to 185 °C

Query block: GET /values?readout=melting point&item= CC(=O)NCc1ccc(CN2CCN(c3ccc(F)cc3C)CC2)cc1 (as salt: hydrochloride)
Result block: 115 to 117 °C

Query block: melting point lookup needed for CC(=O)NC(C)c1ccc(CN2CCN(c3ccc(F)cc3)CC2)cc1 (stereo not shown) , thanks.
Result block: 101 to 103 °C

Query block: Find the recorded melting point belonging to `CC(=O)NCc1ccc(CN2CCN(c3ccc(F)cc3N)CC2)cc1` and report it.
Result block: 139 to 140 °C

Query block: What measured melting point goes with `CC(=O)NC(C)(C)c1ccc(CN2CCN(c3nccs3)CC2)cc1` ?
Result block: 118 to 120 °C
